SUBJECT OF TEST: Kir2.1 (Mus musculus, UniProt P35561)
Sequence (P35561 1-428): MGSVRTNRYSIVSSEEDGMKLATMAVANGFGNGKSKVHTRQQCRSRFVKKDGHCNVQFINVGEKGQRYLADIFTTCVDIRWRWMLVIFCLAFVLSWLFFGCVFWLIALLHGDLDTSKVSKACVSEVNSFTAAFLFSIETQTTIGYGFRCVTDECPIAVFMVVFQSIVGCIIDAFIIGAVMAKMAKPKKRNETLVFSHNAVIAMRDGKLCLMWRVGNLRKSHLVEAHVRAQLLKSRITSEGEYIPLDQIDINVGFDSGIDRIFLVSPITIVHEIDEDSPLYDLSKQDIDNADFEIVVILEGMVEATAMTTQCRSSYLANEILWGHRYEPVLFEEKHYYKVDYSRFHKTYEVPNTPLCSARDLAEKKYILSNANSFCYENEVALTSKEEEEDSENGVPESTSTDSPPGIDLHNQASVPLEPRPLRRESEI
ASSAY DETAILS: whole cell
SETUP CONDITIONS: read-out: IC50 Kir2.1; pH 7.4, whole cell, compound applied extracellularly
pIC50: −log10 of the molar value.

COMPOUND: COc1ccc(CNCc2ccc(OC)cc2)cc1 [14g]
pIC50: 4.46
